tested on: panel of cancer cell lines; assay: Cell viability (CellTiter-Glo) dose-response across cancer cell line panel; assay type: cell-based, human; conditions: Homo sapiens, BEN cells;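 note: after 72 h compound incubation with CellTiter-Glo ATP readout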
Measured Quantity: EC50 (µM)
Just the number please, in µM, no unit attached.

In plain terms, COCc1ccccc1NCc1ccc([C@@H]2[C@H](O)CCCc3cncn32)c(-c2ccccc2Cl)c1 [CSN5i-2e] has a documented EC50 of 10.5

---

Tested on: panel of cancer cell lines
Assay: Cell viability (CellTiter-Glo) dose-response across cancer cell line panel;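 note: after 72 h compound incubation with CellTiter-Glo ATP readout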
Assay type: cell-based, human
Details: Homo sapiens, COLO-678, COLO-678
Description: Next, we explored the effect of CSN5 inhibition on the viability of cancer cells. […] A standardized CellTiter-Glo Assay (Promega #G7570) based on the quantification of ATP was applied according to the manufacturer's protocol to measure the amount of viable cells in culture. […] EC50 values were calculated from the plot of percentage of inhibition versus inhibitor concentration using the nonlinear regression analysis software Origin 7.5SR6 (OriginLab Corp.).
Measured Quantity: pEC50
Remember, pEC50 is on a log scale: it is -log10 of the molar concentration.

Structure Smiles: COCc1ccccc1NCc1ccc([C@H]2[C@@H](O)CCCc3cncn32)c(-c2ccccc2Cl)c1
pEC50: 5.47

Next item in the queue.
In plain terms, NS(=O)(=O)OC[C@@H]1C[C@@H](n2ccc3c(N[C@H]4CCc5ccccc54)ncnc32)C[C@@H]1O has a documented pEC50 of 5.31

---

tested on: panel of cancer cell lines; assay: Cell viability (CellTiter-Glo) dose-response across cancer cell line panel; assay type: cell-based, human; conditions: Homo sapiens, CAL-148, CAL-148 cells;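 note: after 72 h compound incubation with CellTiter-Glo ATP readout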
Measured Quantity: EC50 (µM)
Just the number please, in µM, no unit attached.

In plain terms, COCc1ccccc1NCc1ccc([C@@H]2[C@H](O)CCCc3cncn32)c(-c2ccccc2Cl)c1 has a documented EC50 of 9.65

---

Tested on: panel of cancer cell lines
Assay: Cell viability (CellTiter-Glo) dose-response across cancer cell line panel;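 note: after 72 h compound incubation with CellTiter-Glo ATP readout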
Type: cell-based, human
Conditions: Homo sapiens, U266B1 cells
Description: Next, we explored the effect of CSN5 inhibition on the viability of cancer cells. […] A standardized CellTiter-Glo Assay (Promega #G7570) based on the quantification of ATP was applied according to the manufacturer's protocol to measure the amount of viable cells in culture. […] EC50 values were calculated from the plot of percentage of inhibition versus inhibitor concentration using the nonlinear regression analysis software Origin 7.5SR6 (OriginLab Corp.).
Measured Quantity: EC50 (µM)
Just the number please, in µM, no unit attached.

In plain terms, COCc1ccccc1NCc1ccc([C@@H]2[C@H](O)CCCc3cncn32)c(-c2ccccc2Cl)c1 has a documented EC50 of 9.53

---

system: panel of cancer cell lines; assay: Cell viability (CellTiter-Glo) dose-response across cancer cell line panel; type: cell-based, human; settings: Homo sapiens, RCM-1, RCM-1;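 note: after 72 h compound incubation with CellTiter-Glo ATP readout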
Each item that follows carries a reported EC50.
Just the number please, in µM, no unit attached.

Molecule: NS(=O)(=O)OC[C@@H]1C[C@@H](n2ccc3c(N[C@H]4CCc5ccccc54)ncnc32)C[C@@H]1O [MLN4924]
Measured Result: 8.84

In plain terms, COCc1ccccc1NCc1ccc([C@H]2[C@@H](O)CCCc3cncn32)c(-c2ccccc2Cl)c1 [CSN5i-2] has a documented EC50 of 2.7

---

tested on: panel of cancer cell lines; assay: Cell viability (CellTiter-Glo) dose-response across cancer cell line panel; format: cell-based, human; details: Homo sapiens, NCI-H1155, NCI-H1155;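 note: after 72 h compound incubation with CellTiter-Glo ATP readout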
Measured Quantity: EC50
# output: number + unit

In plain terms, COCc1ccccc1NCc1ccc([C@H]2[C@@H](O)CCCc3cncn32)c(-c2ccccc2Cl)c1 [CSN5i-2] has a documented EC50 of 653 nM
